Origin of measurements: the supplement of paper PMC11451515

# System: NOMO1
# test_description: cell viability relative to DMSO control; higher = less cytotoxic
# protocol_conditions: HPLM + 10% dialyzed FBS; 48 h; 0.0632 µM
Known cell viability of a selection of compounds
Write the answer as a number in %, unit excluded.

compound: CCCCCOC(=O)NC\1=N\C(=O)N(\C=C1F)[C@@H]2O[C@H](C)[C@@H](O)[C@H]2O
cell viability (%): 95.6

compound: C#Cc1cccc(Nc2ncnc3cc(OCCOC)c(OCCOC)cc23)c1
cell viability (%): 108

compound: Cc1c(CN2CCN(C(=O)[C@H](C)O)CC2)sc2c(N3CCOCC3)nc(-c3cnc(N)nc3)nc12
cell viability (%): 86.5

compound: CCCCCCCCCCCCCCCCCCCCCCO
cell viability (%): 125

compound: CC\1=C/C=C\C=[N]1[Pt](N)(Cl)Cl
cell viability (%): 108

compound: C[C@H]1[C@H](NC(=O)/C(=N/OC(C)(C)C(=O)O)c2csc(N)n2)C(=O)N1[S+](=O)([O-])O
cell viability (%): 108

compound: CC(=O)O.Cc1c(-c2ccc(O)cc2)n(Cc2ccc(OCCN3CCCCCC3)cc2)c2ccc(O)cc12
cell viability (%): 89.6

compound: CN(C)c1ccc(O)c2c1C[C@H]1C[C@H]3[C@H](N(C)C)C(O)=C(C(N)=O)C(=O)[C@@]3(O)C(O)=C1C2=O
cell viability (%): 117

compound: CCCCn1c(=O)n(Cc2ccccc2F)c(=O)c2nc(Cc3ccc(NC(C)=O)cc3)[nH]c21
cell viability (%): 52.4

compound: COc1cnc(N[S+](=O)([O-])c2ccc(N)cc2)nc1
cell viability (%): 125

Input: Please look up its cell viability: CCC(C)SSc1ncc[nH]1 (stereo not drawn)
Output: 102

Input: Reported cell viability for `O=NN(CCCl)C(=O)NC1CCCCC1` : what is it?
Output: 105

Input: Return reported cell viability; argument: `CNC(=O)c1ccc(-c2cnc3ncc(Cc4ccc5ncccc5c4)n3n2)cc1F`
Output: 132
